system: NCI-H522 lung; assay: NCI-60 one-dose screen, 48 h (100 = growth as untreated, 0 = no growth, -100 = all killed); conditions: 10 µM unless noted
This is part of a sample that, as a whole, favours compounds with a hit. Of some 83,000 tested, about 20% had one in any assay. Calls of active or inactive are those of the source. The calls were made as follows: active = growth percent below 10; inactive = the rest.
For each of the compounds below, state its growth.

Looking for the measured growth of `COc1ccc(NC2=C(Br)C(=O)C(C)=C(C)C2=O)cc1OC` , can you help?
89.6% (inactive)

Ok, now `Cc1ccc2c(n1)C(=O)C(Cl)=C(Nc1ccc(C(=O)OC(C)(C)C)cc1)C2=O`
-14.1% [9.25 µM] (active)

Same read-out for `O=C(CSc1nnc(-c2ccc(Cl)cc2)n1-c1ccccc1)Nc1ccccc1Cl` ?
76.2% (inactive)

Likewise for `CCOC(=O)c1c(NC(=O)c2cccc(C(F)(F)F)c2)sc2c1CCC(=O)C2` ?
-4% (active)

Same again, this time with `COc1ccccc1/C=C/C(=O)c1nnn(-c2ccc(F)cc2)c1C`
54% (inactive)

`N#Cc1nc(-c2ccccc2)oc1N1CCC(C2(C(F)(F)F)N=N2)CC1` ?
96.8% (inactive)

Subsequent entry: COc1ccc(/C=N\NC(=O)c2cnn(CC(O)c3ccccc3)c2N)cc1OCc1ccc(Cl)cc1 (configuration not stated)
92.7% (inactive)

Proceed to `COc1cc2cc(Oc3ccc(NC(=O)c4cc(C(F)(F)F)cc(C(F)(F)F)c4)cc3)c(C)nc2cc1OCCN1CCOCC1`
58.1% (inactive)

Now give it for `COc1cc2c3c(cc4c5c(ccc4c3c1OC)OCO5)N(CCN(C)C)C2=O` too.
-6.46% (active)

Would you mind doing `Cc1ccccc1N1CCN(C2=C(Cl)C(=O)c3ncccc3C2=O)CC1` as well?
-28% (active)

Another: `CN1CCC[C@]2(C)[C@H]3CC[C@@H]4[C@@H]5[C@H]6OC[C@@]5(CCC6(C)C)CC[C@@]4(C)[C@]3(C)CC[C@H]2C1(C)C`
96.3% (inactive)

Same again, this time with `COc1ccc(-c2nc(C#N)c(N3CCC(S(=O)(=O)N4CCOCC4)CC3)o2)cc1`
89.5% (inactive)

Query `COc1ccc(C(=NNS(=O)(=O)c2ccc(C)cc2)c2ccccc2)cc1OC` next
92.4% (inactive)

// next record `C[C@@H]1OCC2(CCN(c3cnc(C(=O)Nc4cc(F)cc5cccnc45)cn3)CC2)[C@@H]1N`
34.8% (inactive)

Also need `O=C1[C@H]2Cc3c([nH]c4ccccc34)[C@H](c3ccc(Br)cc3)N2C(=O)CN1C1CCN(CC2CCCCC2)CC1` , thanks.
83.6% (inactive)

Do the same for `C#CCOc1cccc(-c2nc(N)nc(Nc3ccccc3SSc3ccccc3Nc3nc(N)nc(-c4cccc(OCC#C)c4)n3)n2)c1` please
79.8% (inactive)

Next record, please: CCC1=Cc2c(OC)cccc2OC12C=Cc1c(OC)cccc1O2 (configuration not stated)
14.4% (inactive)

Do the same for `Fc1cc(F)cc(NNC(=S)c2ccccc2)c1` please
37% (inactive)

Now this one: `Cc1ccc(NC(=O)Nc2nc3ccc([N+](=O)[O-])cc3s2)cc1`
-10.6% (active)

Quick one: `COc1cc(/C=C2/C(=O)Nc3ccc(Cl)cc32)ccc1OCc1ccc(Cl)cc1`
87.9% (inactive)

Continue with `CCN(CC)CCOc1ccc(C(=C(C)c2ccc(OC)cc2)c2ccc(OCCN(CC)CC)cc2)cc1`
-4.16% (active)

// same read-out, input: `CCCCc1nc2c(N)nc3ccccc3c2n1Cc1cccc(CN)c1`
72.7% (inactive)

Consider next the compound `O=C(CCCCCCNC(=O)C(O)(O)C(F)(F)F)Nc1ccc(-c2ccccc2)cc1` in the same way.
-30.9% (active)

How about `CCCCCC[n+]1ccc(SCC(=O)n2ccc3ccccc32)c2ccccc21` ?
73.5% (inactive)

Try this compound too: `CCN(CC)c1ccc(/C=N/NC(=O)c2ccc(S(N)(=O)=O)cc2)cc1`
18.7% (inactive)

Could you do the same for `CNC(=O)c1cc(-n2ccc3cc(NC(=O)Nc4ccc(N5CCN(C)CC5)c(C(F)(F)F)c4)ccc32)ccn1` , please?
101% (inactive)

Can you check `COc1cccc(N2CCN(C3=C(Cl)C(=O)c4ncccc4C3=O)CC2)c1` next?
42.6% (inactive)

Lookup `CN1CCN(Cc2ccc(NC(=O)c3cncc(C#Cc4cnc5ccc(NCCO)nn45)c3)cc2C(F)(F)F)CC1`
-75.8% (active)

Again, but for CC[C@]12C=CCN3CC[C@]4(C(=C(C(=O)OC)C1)Nc1cc5c(cc14)[C@@H]1[C@H](O5)[C@@H](O)[C@@]4(CC)CC(C(=O)OC)=C5Nc6cc(O)ccc6[C@@]56CCN1C46)C32 (some centres not stated)
-22.8% (active)

Also check `CC(=O)c1c([Si](C)(C)C)c2cc(C#N)ccn2c1C(=O)c1ccc(Br)cc1`
70.5% (inactive)

Do the same for `C#C[C@]1(O)CC[C@H]2[C@@H]3CC=C4c5sc(Nc6cccc(F)c6)nc5CC[C@]4(C)[C@H]3CC[C@@]21C` please
31.7% (inactive)

Same thing, different compound: `O=C(/C=C/c1cccc(Br)c1)c1cccc(OCCCCOc2cccc(C(=O)/C=C/c3cccc(Br)c3)c2)c1`
98.1% (inactive)

Let us now turn to `CCOC(=O)c1c(NC(=O)c2cccc(C(F)(F)F)c2)sc2c3c(ccc12)OCN(C)C3`
-15% (active)

What do you have for `COC(=O)CCSC1=C(C)C(=O)c2ccccc2C1=O` ?
62.4% (inactive)

Same for `Cc1cc(NS(=O)(=O)c2ccc(NC(=O)CSc3nc4ccccc4c(=O)n3-c3ccccc3)cc2)no1`
91.9% (inactive)

Try this compound too: `CC1(C)C=Cc2cc(/C(N)=N/C(N)=N/c3nc4ccccc4s3)ccc2O1`
91.2% (inactive)

What would you report for `Cc1ccc2c(n1)C(=O)C(Cl)=C(Nc1cccc(C(F)(F)F)c1)C2=O` ?
-28.8% (active)
